- Target Or System: Peptide 1593 (…) (Mycobacterium tuberculosis)
- Experiment Notes: indirect ELISA, supernatant on 1 ug/ml coated peptide
Result Type: OD450, supernatant 1:90

[
  {
    "Binder": "Antibody 91B4-1 (antibody, V domains shown) VH: QSLEESGGRLVSPGGSLTLTCTVSGIDLSRFGVSWVRQAPGKGLEWTGYIHTDGNVYYASWAKGRFTISKTSTTVDLKMTSLTTEDTATYFCARGGYAADLWGQAALVTVSS VL: DPMLTQTPSSVSAAVGGTVTISCQSSESVYKNYLAWYQQKLGQPPKLLIGATSTLVSGVPSRFKGSGSRTQFSLTISDLECDDAATYYCVGGYTGKNVFGGGTEVVVK",
    "Reported": "3.04 OD450"
  },
  {
    "Binder": "Antibody 101G10-2 (antibody, V domains shown) VH: QSVEESGGRLVTPGTPLTLTCTVSGFSLSSYDMTWVRQAPGKGLEYIGVISYGGSAYYASWAKGRFTISKTSTTVDLKITSPTTEDTATYFCARGDSDGSSELFNLWGQGTLVTVSS VL: AVLTQTPSPVSAPVGGTVSINCQSSKSVYNNNCLSWYQQKPGQPPNLLIYGASTLASGVPSRFKGSGSGTQFTLTINDVQCDDAATYYCAGCFASTNDMYGFGGGSEVVVK",
    "Reported": "3.22 OD450"
  }
]
